system: Neutrophil; experiment: Immunomodulatory activity in polymorphoneutrophils assessed as inhibition of luminol-induced oxidative burst by chemiluminescence assay; type: functional, cell-based
pIC50: −log10 of the molar value.
valueType: pIC50

See these solved cases before continuing.
INSERT INTO measurements (molecule, assaytarget, observedvalue) VALUES
  ('COc1ccc2c(OC)c3ccoc3nc2c1OC', 'Neutrophil', 4.45),
  ('COc1cc2nc3occc3c(OC)c2cc1OC', 'Neutrophil', 4.21);

a: CC(C)Cc1ccc(C(C)C(=O)O)cc1 (stereo not drawn)
b: CC1(C)O[C@H]2CC(=O)OC[C@]23[C@H]2CC[C@@]4(C)[C@H](c5ccoc5)OC(=O)[C@H]5O[C@]54[C@]2(C)C(=O)C[C@@H]13
c: COc1ccc2c(=O)n3c(nc2c1)-c1[nH]c2cc4c(cc2c1CC3)OCO4
Query: Task field, ranking: reported pIC50, descending order. Would you mind listing the labels in the order requested?
Reply: a, c, b
(a: 4.92, c: 4.65, b: 4.42)
